Test system: 966289-007-R4-J1-PDC complex spheroid viability
Assay: Anticancer human tumor 966289-007-R4-J1-PDC patient-derived pancreatic adenocarcinoma cell line growth inhibition [GQUAD]
Conditions: second compound 1 µM; first compound 0.316 µM; stronger effect = lower value
measured_metric: viability, T/C (%)
Respond numerically; units are % and should not be typed.

The measured viability, T/C associated with CC1COCCN1c1cc(C2(O)CC3CCC(C2)O3)c2cnn(-c3ccn[nH]3)c2n1 (stereo not drawn) + CN(C)c1ccc(Nc2c3ccc(NC(=O)CCN4CCCC4)cc3nc3cc(NC(=O)CCN4CCCC4)ccc23)cc1 reads 19.6

The measured viability, T/C associated with COc1cc(C2c3cc4c(cc3C(OC3OC5COC(C)OC5C(O)C3O)C3COC(=O)C23)OCO4)cc(OC)c1O (stereo not drawn) + CN(C)c1ccc(Nc2c3ccc(NC(=O)CCN4CCCC4)cc3nc3cc(NC(=O)CCN4CCCC4)ccc23)cc1 reads 42.4

The measured viability, T/C associated with C=CC(=O)N1CCN(c2nc(=O)n(-c3c(C)ccnc3C(C)C)c3nc(-c4c(O)cccc4F)c(F)cc23)C(C)C1 (stereo not drawn) + Cc1[nH]c2ccc(F)cc2c1-c1nc2c3cccnc3c3ncccc3c2[nH]1 reads 105

---

Test system: 966289-007-R4-J1-PDC complex spheroid viability
Experiment: Anticancer human tumor 966289-007-R4-J1-PDC cell line growth inhibition [GQUAD];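 note: spheroids exposed to the agents for seven days before readout; percent viability relative to DMSO vehicle control wells taken as 100%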
Details: second compound 0.0316 µM; first compound 3.16 µM; stronger effect = lower value
Dear colleague, classification is by viability, T/C, with ranges listed here: low group = under 5%, middle group = from 5% up to 90%, high group = 90% and over

Example cases with answers are listed next.
{"compound": "COc1ncnc(C2CC2)c1-c1ncc2cnn(Cc3ccc(-c4nc(C(F)(F)F)cn4C(C)C)cc3)c2n1 + CN(C)c1ccc(Nc2c3ccc(NC(=O)CCN4CCCC4)cc3nc3cc(NC(=O)CCN4CCCC4)ccc23)cc1", "class_assignment": "high group"}
{"compound": "CC(C)(O)C1CCC(Nc2ccc3ncc(-c4cccc(C(F)(F)F)c4)n3n2)CC1 (stereo not given) + CN(C)c1ccc(Nc2c3ccc(NC(=O)CCN4CCCC4)cc3nc3cc(NC(=O)CCN4CCCC4)ccc23)cc1", "class_assignment": "middle group"}

Classify this compound: CC(=O)O[C@H]1C(=O)[C@@]2(C)[C@H]([C@H](OC(=O)c3ccccc3)[C@]3(O)C[C@H](OC(=O)[C@H](O)[C@@H](NC(=O)c4ccccc4)c4ccccc4)C(C)=C1C3(C)C)[C@]1(OC(C)=O)CO[C@@H]1C[C@@H]2O + Cc1cnc(CNC(=O)c2c(=O)c3ccc(N4CCCN(C)CC4)nc3n3c2sc2ccccc23)cn1
low group

Classify this compound: O=C(NO)c1cnc(N2CCN(S(=O)(=O)c3ccc4ccccc4c3)CC2)nc1 + CN(C)c1ccc(Nc2c3ccc(NC(=O)CCN4CCCC4)cc3nc3cc(NC(=O)CCN4CCCC4)ccc23)cc1
low group

---

Test system: 966289-007-R4-J1-PDC complex spheroid viability
Assay: Anticancer human tumor 966289-007-R4-J1-PDC cell line growth inhibition [GQUAD]; active means viability on the fitted dose curve at most 10% of control; inactive means the rest;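 note: spheroids exposed to the agents for seven days before readout; percent viability relative to DMSO vehicle control wells taken as 100%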
Conditions: second compound 10 µM; first compound 0.316 µM
Description: DNA G-quadruplex Stabilizer Agents in Combinations in Complex Spheroids A high-throughput screen of multi-cell type tumor spheroids was designed to identify active combinations of DNA G-quadruplex stabilizer agents and targeted small molecules. […] Compounds. […] If the clinical Cmax for an agent had not been determined, the highest concentration tested was 10 microM. […]
Valid outcomes are listed here; reply with one: active, inactive

{"molecule": "O=C(NO)c1cnc(N2CCN(S(=O)(=O)c3ccc4ccccc4c3)CC2)nc1 + CN(C)c1ccc(Nc2c3ccc(NC(=O)CCN4CCCC4)cc3nc3cc(NC(=O)CCN4CCCC4)ccc23)cc1", "tgt": "966289-007-R4-J1-PDC complex spheroid viability", "class_assignment": "active"}

What classification did CC1COCCN1c1cc(-c2ccnn2C)c2ccnc(-c3ccn[nH]3)c2n1 (stereo not given) + Cc1cnc(CNC(=O)c2c(=O)c3ccc(N4CCCN(C)CC4)nc3n3c2sc2ccccc23)cn1 end up with in this test?
active

What classification did CC1COCCN1c1cc(C2(S(C)(=N)=O)CC2)nc(-c2ccnc3[nH]ccc23)n1 (stereo not given) + Cc1cnc(CNC(=O)c2c(=O)c3ccc(N4CCCN(C)CC4)nc3n3c2sc2ccccc23)cn1 end up with in this test?
active

What classification did COc1cc(C2c3cc4c(cc3C(OC3OC5COC(C)OC5C(O)C3O)C3COC(=O)C23)OCO4)cc(OC)c1O (stereo not given) + Cc1[nH]c2ccc(F)cc2c1-c1nc2c3cccnc3c3ncccc3c2[nH]1 end up with in this test?
inactive

What classification did Cc1cccc(N(C)C(=O)C2C(O)CCN2c2nc(C)cc(C(F)(F)F)c2C#N)c1 (stereo not given) + CN(C)c1ccc(Nc2c3ccc(NC(=O)CCN4CCCC4)cc3nc3cc(NC(=O)CCN4CCCC4)ccc23)cc1 end up with in this test?
inactive

What classification did CCCS(=O)(=O)Nc1ccc(F)c(C(=O)c2c[nH]c3ncc(-c4ccc(Cl)cc4)cc23)c1F + Cc1cnc(CNC(=O)c2c(=O)c3ccc(N4CCCN(C)CC4)nc3n3c2sc2ccccc23)cn1 end up with in this test?
active

What classification did Cc1[nH]c2ccccc2c1CCNCc1ccc(/C=C/C(=O)NO)cc1 + Cc1[nH]c2ccc(F)cc2c1-c1nc2c3cccnc3c3ncccc3c2[nH]1 end up with in this test?
active

What classification did CC(=O)O[C@H]1C(=O)[C@@]2(C)[C@H]([C@H](OC(=O)c3ccccc3)[C@]3(O)C[C@H](OC(=O)[C@H](O)[C@@H](NC(=O)c4ccccc4)c4ccccc4)C(C)=C1C3(C)C)[C@]1(OC(C)=O)CO[C@@H]1C[C@@H]2O + Cc1cnc(CNC(=O)c2c(=O)c3ccc(N4CCCN(C)CC4)nc3n3c2sc2ccccc23)cn1 end up with in this test?
active

What classification did Cn1ncnc1[C@H]1c2n[nH]c(=O)c3cc(F)cc(c23)N[C@@H]1c1ccc(F)cc1 + Cc1cnc(CNC(=O)c2c(=O)c3ccc(N4CCCN(C)CC4)nc3n3c2sc2ccccc23)cn1 end up with in this test?
active

What classification did C=CC(=O)N1CCN(c2nc(=O)n(-c3c(C)ccnc3C(C)C)c3nc(-c4c(O)cccc4F)c(F)cc23)C(C)C1 (stereo not given) + Cc1cnc(CNC(=O)c2c(=O)c3ccc(N4CCCN(C)CC4)nc3n3c2sc2ccccc23)cn1 end up with in this test?
active

What classification did Cc1[nH]c2ccccc2c1CCNCc1ccc(/C=C/C(=O)NO)cc1 + CN(C)c1ccc(Nc2c3ccc(NC(=O)CCN4CCCC4)cc3nc3cc(NC(=O)CCN4CCCC4)ccc23)cc1 end up with in this test?
active

What classification did C=CC(=O)N1CCN(c2nc(=O)n(-c3c(C)ccnc3C(C)C)c3nc(-c4c(O)cccc4F)c(F)cc23)C(C)C1 (stereo not given) + CN(C)c1ccc(Nc2c3ccc(NC(=O)CCN4CCCC4)cc3nc3cc(NC(=O)CCN4CCCC4)ccc23)cc1 end up with in this test?
inactive

What classification did CC1COCCN1c1cc(C2(S(C)(=N)=O)CC2)nc(-c2ccnc3[nH]ccc23)n1 (stereo not given) + Cc1[nH]c2ccc(F)cc2c1-c1nc2c3cccnc3c3ncccc3c2[nH]1 end up with in this test?
inactive

What classification did CC(C)(O)C1CCC(Nc2ccc3ncc(-c4cccc(C(F)(F)F)c4)n3n2)CC1 (stereo not given) + Cc1[nH]c2ccc(F)cc2c1-c1nc2c3cccnc3c3ncccc3c2[nH]1 end up with in this test?
inactive

What classification did O=c1[nH]cc(F)c(=O)[nH]1 + Cc1[nH]c2ccc(F)cc2c1-c1nc2c3cccnc3c3ncccc3c2[nH]1 end up with in this test?
inactive
